Ref: patent US7659277B2

Entries with reported IC50 on POSH (Homo sapiens)
measured.metric: IC50 (nM)

> print(dat)
                                    compound  value
 1  Cc1[nH]c(=O)c(C(=O)/C=C/c2ccccc2F)c2c1CCCC2   1000
 2  O=C(C(Cl)Cl)N1CCN(c2ccc([N+](=O)[O-])cc2)CC1    900
 3  O=[N+]([O-])c1ccc2c(c1)Cc1cc(/N=C/c3ccc(Br)cc3)ccc1-2   1000
 4  COc1ccc(N2C(=O)NC(=O)/C(=C\c3ccc(Cl)cc3)C2=O)cc1   1000
 5       Oc1c(Br)cc(Br)cc1/C=N/c1cccc2nsnc12    700
 6            O=C1C=CC(=O)N1c1cc(Cl)cc(Cl)c1    200
 7  O=C(Cc1ccccc1)N1N=CCC1(O)c1ccc(F)cc1 (centres unmarked)   1000
 8  O=C1NC(=S)N(c2ccccc2)C(=O)/C1=C\c1c(Cl)cccc1Cl    800
 9  O=C1/C(=C\c2cccc([N+](=O)[O-])c2)Sc2ccccc21   1300
10               Cc1ccc(/C=N/c2ccc(Cl)cc2)o1   1000
11  Oc1c(Cl)cc(Cl)cc1/C=N/c1ccc(-c2nc3ccccc3[nH]2)cc1    600
12                  O=C1C=CC(=O)N1c1ccccc1Cl    700
13  COc1ccc(/C=C2\C(=O)NC(=S)N(c3ccccc3)C2=O)cc1  10000
14     Cc1c(C(=O)/C=C/c2cccs2)c2cc(O)ccc2n1C    400
15             OCc1cccc(/N=C/c2cccc(O)c2O)c1    300
16                O=C1C=CC(=O)N1c1ccc(Cl)cc1    700
17  O=C1C(=Cc2ccc(-c3ccc(Br)cc3)o2)C(=O)c2ccccc21    400
18  O=C1C=CC(=O)N1c1ccc(OC(F)(F)C(F)F)c(N2C(=O)C=CC2=O)c1    900
19           CC(=O)Nc1ccc(-c2cc3ccccn3c2)cc1    900
20     COc1ccc(/C=C/C(=O)C2C(=O)CCC2=O)cc1OC    400

----------
system: HIV-1; experiment: HIV maturation (budding) in virus-like particle assay, HIV-1 p24 antigen ELISA; type: cell-based; settings: Human immunodeficiency virus 1, read-out: Budding (3 μM)
activity at 3 µM less than 50% is class 1; activity at 3 µM greater than or equal to 50% is class 0.

> print(dat)
                                   compound  target.or.test.system      cat
1  O=C1C=CC(=O)N1c1ccc(OC(F)(F)C(F)F)c(N2C(=O)C=CC2=O)c1 [Compound 20]                  HIV-1  class 0
2  COc1ccc(/C=N/c2ccc(Nc3ccccc3)cc2)c2ccccc12 [Compound 55]                  HIV-1  class 0
3  CN(C)c1ccc(/C=C2\SC(=S)N(C3CCS(=O)(=O)C3)C2=O)cc1 (stereo not drawn) [Compound 110]                  HIV-1  class 1
4  CC(C)(C)c1ccc(O)c(/N=C/C=C/c2cccc([N+](=O)[O-])c2)c1 [Compound 59]                  HIV-1  class 0
5  COc1ccc(NC(=O)c2cc3cccc(N)c3cc2O)cc1 [Compound 114]                  HIV-1  class 1
6  O=c1/c(=C/c2ccc(N3CCOCC3)cc2)sc2nc3ccccc3n12 [Compound 32]                  HIV-1  class 0
7  O=c1oc2ccccc2c(O)c1C(=S)Nc1ccccc1 [Compound 96]                  HIV-1  class 0
8  O=C1c2ccccc2-c2nc3nonc3nc21 [Compound 91]                  HIV-1  class 1
9  O=C1C(=Cc2ccc(-c3ccc(Br)cc3)o2)C(=O)c2ccccc21 [Compound 38]                  HIV-1  class 1

----------
tested on: E2 protein; type: biochemical; conditions: % activity at 1 μM compound; control is related to 100% activity; HTS protocol
measured.metric: Selectivity (% A* in 1 μM) E2 (%)

> print(dat)
                                    compound  target.or.test.system                measured.metric  value.unit  value
 1                   N/N=C\c1ccc(-c2cccs2)s1             E2 protein  Selectivity (% A* in 1 μM) E2           %     97
 2  COc1cc(C2Nc3ccccc3NC3=C2C(=O)CC(C)(C)C3)cc(Br)c1O (stereo not shown)             E2 protein  Selectivity (% A* in 1 μM) E2           %     99
 3     COc1ccc(/C=C/C(=O)C2C(=O)CCC2=O)cc1OC             E2 protein  Selectivity (% A* in 1 μM) E2           %     66
 4               Cc1cc(I)ccc1NCn1nnc2ccccc21             E2 protein  Selectivity (% A* in 1 μM) E2           %     93
 5        Oc1ccc2ccccc2c1/C=N/c1ncc(Br)cc1Br             E2 protein  Selectivity (% A* in 1 μM) E2           %    117
 6        Oc1c(Br)cc(Br)cc1/C=N/c1ccc(Br)cn1             E2 protein  Selectivity (% A* in 1 μM) E2           %     52
 7  O=C(/C=C/c1cccnc1)c1ccc(C(=O)/C=C/c2cccnc2)cc1             E2 protein  Selectivity (% A* in 1 μM) E2           %    125
 8          Cc1cc(/N=C/c2c(O)ccc3ccccc23)no1             E2 protein  Selectivity (% A* in 1 μM) E2           %     49
 9     Oc1ccc(/N=C/c2cccs2)cc1-c1nc2ccccc2s1             E2 protein  Selectivity (% A* in 1 μM) E2           %     86
10          Oc1c(Br)cc(Cl)cc1/C=N/c1ccccc1Br             E2 protein  Selectivity (% A* in 1 μM) E2           %    108

----------
Some compounds, each annotated with its measured remaining activity at 1 µM.
target: POSH (Homo sapiens); construct: GST-POSH lot NB81/p.118 3.6 mg/ml; fused on or other part: GST tag, used for detection with anti-GST XL665; assay: Selectivity (% A in 1 μM), ubiquitin ligase activity of POSH; assay type: biochemical; conditions: % activity at 1 μM compound; control is related to 100% activity; HTS protocol; read-out: Selectivity (% A* in 1 μM) POSH
measured.metric: remaining activity at 1 µM (%)

> print(dat)
                                chem.smiles  value.unit  value
1  O=[N+]([O-])c1ccc(-c2ccc(/N=C/c3c(O)ccc4ccccc34)cc2)cc1           %     22
2          CC(=C\c1ccccc1)/C=C1/SC(=N)NC1=O           %    105
3  O=C1NC(=O)N(c2ccc(Br)cc2)C(=O)/C1=C/c1ccc(O)cc1           %     13
4         O=C(NCc1ccc(Cl)cc1)C(=O)Nc1ccccc1           %    111

----------
Target: POSH (Homo sapiens)
Construct: GST-POSH lot NB81/p.118 3.6 mg/ml; fused on or other part: GST tag, used for detection with anti-GST XL665
Sequence (Q7Z6J0 1-269 limits assumed): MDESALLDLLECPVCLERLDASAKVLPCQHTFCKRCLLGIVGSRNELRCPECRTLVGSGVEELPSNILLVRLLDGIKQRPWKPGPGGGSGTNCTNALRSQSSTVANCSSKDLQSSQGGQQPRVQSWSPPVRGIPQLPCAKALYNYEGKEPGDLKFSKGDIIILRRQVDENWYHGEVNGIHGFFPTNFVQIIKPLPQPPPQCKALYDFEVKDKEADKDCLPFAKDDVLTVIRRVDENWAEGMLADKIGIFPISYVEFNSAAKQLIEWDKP
Experiment: Selectivity (% A in 1 μM), ubiquitin ligase activity of POSH
Format: biochemical
Details: read-out: Selectivity (% A* in 1 μM) POSH
Please assign a class to every record based on measured remaining activity at 1 µM, with ranges class A: < 20%; class B: ≥ 20% and < 50%; class C: ≥ 50%

> print(dat)
                                   compound      cat
1  O=C1C=CC(=O)N1c1ccc(OC(F)(F)C(F)F)c(N2C(=O)C=CC2=O)c1 [Compound 20]  class B
2  CN(C)c1ccc(/C=C2\SC(=S)N(C3CCS(=O)(=O)C3)C2=O)cc1 (stereo not drawn) [Compound 110]  class C
3  COc1ccc(/C=N/c2ccc(Nc3ccccc3)cc2)c2ccccc12 [Compound 55]  class B
4  COc1ccc(NC(=O)c2cc3cccc(N)c3cc2O)cc1 [Compound 114]  class B
5  COc1ccc(N2C(=O)NC(=O)/C(=C\C=C\c3ccccc3)C2=O)cc1 [Compound 8]  class A
6    O=C1C=CC(=O)N1c1ccccc1Cl [Compound 18]  class B
7  O=C(Nc1cccc2c(NC(=O)C3C4CCCCC43)cccc12)C1C2CCCCC21 (stereo not drawn) [Compound 97]  class A
8  O=c1/c(=C/c2ccc(N3CCOCC3)cc2)sc2nc3ccccc3n12 [Compound 32]  class C
